Reference source for all entries: patent EP4477673A1

molecular target: Human PD-1 antigen protein (Sino Biological, 10377-H08H) (human, UniProt Q15116 25-167); test: SPR Biacore 8K, fusion protein captured by anti-human IgG (Fc), human PD-1 as analyte
Sequence (Q15116 25-167 limits assumed): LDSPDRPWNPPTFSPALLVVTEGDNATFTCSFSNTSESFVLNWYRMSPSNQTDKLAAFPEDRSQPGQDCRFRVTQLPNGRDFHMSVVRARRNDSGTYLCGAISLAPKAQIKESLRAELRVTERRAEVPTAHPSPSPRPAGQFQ
VALUE_TYPE: Kd
Answer with the number, then the unit.

Data request: Which Kd is reported for this binder? A-N88D-M26 (Fc fusion, not shown: IgG1 hinge (C220S) + Fc Knob chain as in A-N88D; IgG1 hinge (C220S) + Fc Hole chain as in A-N88D) chain (part 1 of 2): EVQLVESGGGLVQPGGSLRLSCAASGLTFSSYSMSWYRQAPGKGRELVAIISGSGGITHYVDSVKGRFTISRDNAKNTLYLQMRSLRAEDTAVYYCRAVSDWEDYWGQGTQVTVSS chain (part 2 of 2): GGGGSGGGGSGGGGSAPASSSTKKTQLQLEHLLLDLQMILQGISNYKNPKLTRMLTAKFYMPKKATELKHLQCLEEELKPLEEVLQGAQSKNFHLRPRDLISDINVIVLELKGSETTFMCEYADETATIVEFLNRWITFAQSIISTLT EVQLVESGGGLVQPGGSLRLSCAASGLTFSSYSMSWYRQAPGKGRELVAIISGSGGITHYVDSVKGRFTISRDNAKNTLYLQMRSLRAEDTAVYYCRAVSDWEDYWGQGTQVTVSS
Data returned: 53.1 nM

Data request: Endpoint output: Kd of A-N88D-M27 (Fc fusion, not shown: IgG1 hinge (C220S) + Fc Knob chain as in A-N88D; IgG1 hinge (C220S) + Fc Hole chain as in A-N88D) chain (part 1 of 2): EVQLVESGGGLVQPGGSLRLSCAASGLTFSSYSMSWYRQAPGKGRELVAIISGSGGITHYVDSVKGRFTISRDNAKNTLYLQMRSLRAEDTAVYYCRAVSDWQDYWGQGTQVTVSS chain (part 2 of 2): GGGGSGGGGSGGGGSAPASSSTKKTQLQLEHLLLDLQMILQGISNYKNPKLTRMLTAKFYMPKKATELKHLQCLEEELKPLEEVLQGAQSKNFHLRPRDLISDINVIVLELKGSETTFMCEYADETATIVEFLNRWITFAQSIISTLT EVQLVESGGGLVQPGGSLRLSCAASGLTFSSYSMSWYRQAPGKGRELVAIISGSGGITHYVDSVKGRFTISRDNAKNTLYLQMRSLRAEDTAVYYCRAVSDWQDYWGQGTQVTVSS . Value?
Data returned: 74.3 nM

Data request: Tell me the measured Kd of A-N88D-M08 (Fc fusion, also called A-N88D-M8; not shown: IgG1 hinge (C220S) + Fc Knob chain as in A-N88D; IgG1 hinge (C220S) + Fc Hole chain as in A-N88D) chain (part 1 of 2): EVQLVESGGGLVQPGGSLRLSCAASGLTFSDYSMSWYRQAPGKGRELVAIISGSGVITHYVDSVKGRFTISRDNAKNTLYLQMRSLRAEDTAVYYCRAVSDWQDYWGQGTQVTVSS chain (part 2 of 2): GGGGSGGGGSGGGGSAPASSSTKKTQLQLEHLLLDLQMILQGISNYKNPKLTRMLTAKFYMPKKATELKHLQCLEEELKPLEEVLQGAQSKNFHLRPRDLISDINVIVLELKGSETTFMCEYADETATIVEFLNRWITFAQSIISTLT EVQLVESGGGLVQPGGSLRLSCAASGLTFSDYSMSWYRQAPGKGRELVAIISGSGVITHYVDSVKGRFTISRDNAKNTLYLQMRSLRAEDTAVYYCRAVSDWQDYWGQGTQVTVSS , please.
Data returned: 12.3 nM

Data request: Recorded Kd of A-N88D-M15 (Fc fusion, not shown: IgG1 hinge (C220S) + Fc Knob chain as in A-N88D; IgG1 hinge (C220S) + Fc Hole chain as in A-N88D) chain (part 1 of 2): EVQLVESGGGLVQPGGSLRLSCAASGLTFSDYSMSWYRQAPGKGRELVAIISGSGGITHYVDSVKGRFTISRDNAKNTLYLQMRSLRAEDTAVYYCRAVSDWEDYWGQGTQVTVSS chain (part 2 of 2): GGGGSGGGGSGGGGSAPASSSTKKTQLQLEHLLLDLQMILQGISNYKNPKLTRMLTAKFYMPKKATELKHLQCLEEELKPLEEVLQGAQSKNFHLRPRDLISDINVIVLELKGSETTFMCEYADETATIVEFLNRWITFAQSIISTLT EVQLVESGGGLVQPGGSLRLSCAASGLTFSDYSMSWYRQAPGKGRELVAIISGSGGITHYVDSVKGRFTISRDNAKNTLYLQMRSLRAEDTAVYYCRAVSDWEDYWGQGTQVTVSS , please.
Data returned: 29.3 nM

Data request: Please report the recorded Kd for A-N88D-M28 (Fc fusion, not shown: IgG1 hinge (C220S) + Fc Knob chain as in A-N88D; IgG1 hinge (C220S) + Fc Hole chain as in A-N88D) chain (part 1 of 2): EVQLVESGGGLVQPGGSLRLSCAASGLTFSSYSMSWYRQAPGKGRELVAIISGSGGITHYADSVKGRFTISRDNAKNTLYLQMRSLRAEDTAVYYCRAVSDWQDYWGQGTQVTVSS chain (part 2 of 2): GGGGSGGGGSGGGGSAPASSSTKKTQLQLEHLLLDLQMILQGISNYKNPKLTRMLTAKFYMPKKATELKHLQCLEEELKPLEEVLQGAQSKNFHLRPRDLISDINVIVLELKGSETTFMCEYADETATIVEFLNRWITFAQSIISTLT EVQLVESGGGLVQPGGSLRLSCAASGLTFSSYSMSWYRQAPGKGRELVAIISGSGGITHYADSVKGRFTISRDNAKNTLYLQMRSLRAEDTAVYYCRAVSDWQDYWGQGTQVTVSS .
Data returned: 134 nM
